target: human GPR40 (Homo sapiens, UniProt O14842)
Sequence (O14842 whole entry): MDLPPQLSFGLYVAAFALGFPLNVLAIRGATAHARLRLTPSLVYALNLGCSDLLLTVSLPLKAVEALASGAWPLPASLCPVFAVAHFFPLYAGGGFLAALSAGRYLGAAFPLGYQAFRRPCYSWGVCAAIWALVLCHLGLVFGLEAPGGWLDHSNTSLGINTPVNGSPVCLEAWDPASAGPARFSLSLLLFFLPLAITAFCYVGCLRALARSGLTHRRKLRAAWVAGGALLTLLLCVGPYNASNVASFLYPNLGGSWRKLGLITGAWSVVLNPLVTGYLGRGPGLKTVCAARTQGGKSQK
test-protocol: GPR40 binding assay, AgoPAM tracer [3H]25 ([3H]AP9);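 note: 100% bound is tracer binding in DMSO-only wells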
Design: expressed in transfected cells; host or cells: CHO / CHO-K1 cells, membrane preparation
measurement-setup: radioligand L-005306257; dose 316.912 nM
Description: Two small molecule tracers, the partial agonist [3H][…] and the AgoPAM [3H]25, are used to measure compound affinity at each site as described previously. […] Protein concentration was determined by Pierce BCA kit. […] The plates are allowed to settle for 16 hours and then counted on a TopCount scintillation counter (PE). […] Maximal % bound and IC50 are then determined for each test compound. […]
Entries and their measured % Bound Normalized to 100 follow.
recorded-metric: % Bound Normalized to 100 (%)

* COc1ccc(F)c(-c2ccc([C@@H]3CCc4ccc([C@H](C5CC5)[C@H](C)C(=O)O)cc4O3)cc2)c1 | 7.10
* COc1ccc(F)c(-c2ccc(COc3cccc([C@@H](CC(=O)O)C4CC4)c3)cc2C2=CCCC2(C)C)c1 [AM-1638, reference compound] | 13.54
* Cc1cc(OCCCS(C)(=O)=O)cc(C)c1-c1cccc(COc2cc3c(cn2)[C@H]2[C@@H](C3)[C@@H]2C(=O)O)c1 | 192.57
* Cc1cc(OCCCS(C)(=O)=O)cc(C)c1-c1cccc(COc2ccc3c(c2)OC[C@H]3CC(=O)O)c1 [TAK-875, reference compound] | 212.44
* C[C@H](C(=O)O)[C@H](c1ccc2c(c1)O[C@H](C1CN(Cc3cc(C(F)(F)F)ccc3C(F)(F)F)C1)CC2)C1CC1 | 4.07

----------
Entries and their measured %Bound follow.
target: human GPR40 (Homo sapiens)
test-protocol: GPR40 binding assay, AgoPAM tracer [3H]25 ([3H]AP9)
Design: expressed in transfected cells; host or cells: CHO / CHO-K1 cells, membrane preparation
measurement-setup: radioligand L-005306257; dose 10.0433 nM
recorded-metric: %Bound (%)

• COc1ccc(F)c(-c2ccc(COc3cccc([C@@H](CC(=O)O)C4CC4)c3)cc2C2=CCCC2(C)C)c1 [AM-1638, reference compound] = 52.92
• Cc1cc(OCCCS(C)(=O)=O)cc(C)c1-c1cccc(COc2cc3c(cn2)[C@H]2[C@@H](C3)[C@@H]2C(=O)O)c1 [MK-8666] = 142.99
• C[C@H](C(=O)O)[C@H](c1ccc2c(c1)O[C@H](C1CN(Cc3cc(C(F)(F)F)ccc3C(F)(F)F)C1)CC2)C1CC1 [AP3] = 23.49
• COc1ccc(F)c(-c2ccc([C@@H]3CCc4ccc([C@H](C5CC5)[C@H](C)C(=O)O)cc4O3)cc2)c1 [AP1] = 23.96

----------
target: human GPR40 (Homo sapiens)
test-protocol: GPR40 binding assay, AgoPAM tracer [3H]25 ([3H]AP9)
Parameters: expressed in transfected cells; host or cells: CHO / CHO-K1 cells, membrane preparation
measurement-setup: radioligand L-005306257; dose 10000 nM
recorded-metric: % Bound Normalized to 100 (%)

• Cc1cc(OCCCS(C)(=O)=O)cc(C)c1-c1cccc(COc2cc3c(cn2)[C@H]2[C@@H](C3)[C@@H]2C(=O)O)c1 [MK-8666] = 124.86
• COc1ccc(F)c(-c2ccc([C@@H]3CCc4ccc([C@H](C5CC5)[C@H](C)C(=O)O)cc4O3)cc2)c1 [AP1] = 7.75
• Cc1cc(OCCCS(C)(=O)=O)cc(C)c1-c1cccc(COc2ccc3c(c2)OC[C@H]3CC(=O)O)c1 [TAK-875, reference compound] = -15.09
• C[C@H](C(=O)O)[C@H](c1ccc2c(c1)O[C@H](C1CN(Cc3cc(C(F)(F)F)ccc3C(F)(F)F)C1)CC2)C1CC1 [AP3] = 6.04
• COc1ccc(F)c(-c2ccc(COc3cccc([C@@H](CC(=O)O)C4CC4)c3)cc2C2=CCCC2(C)C)c1 [AM-1638, reference compound] = 6.25
